# System: Staphylococcus aureus
# EXPERIMENT_NOTES: Antibacterial activity against Staphylococcus aureus MRSA ATCC 43300 (CO-ADD:GP_020); MIC in CAMBH media using NBS plates, by Resazurin F(560/590)
# Assay type: functional
# TEST_PARAMETERS: Concentration 20 uM, ASSAY_TEST Inhibition of Bacterial Growth, detection method Resazurin, Fluorescence (ex560/em590), MEDIA CAMHB, plate type 384well, CORNING #3640, time 18 hr
Entries and their Inhibition
Write the number in % without appending the unit.

In the examples that follow, each entry is paired with its recorded Inhibition.
| STRUCTURE_AS_SMILES | ATTRIBUTE_MEASURED | RESULT_UNITS | TEST_RESULT |
| --- | --- | --- | --- |
| Nc1ccc2c(c1)Cc1cc(Cl)c(Cl)cc1-2 | Inhibition | % | 12.19 |
| N=C(N)Nc1nc2cc([N+](=O)[O-])ccc2[nH]1 | Inhibition | % | 9.17 |

Prompt: Quickly give me recorded Inhibition for NC(=S)N/N=C/c1cc(-c2cccc(N)c2)ccn1
Response: -5.52

Prompt: Quickly give me recorded Inhibition for Cc1ccc(NC(=O)Nc2ccccc2C(N)=O)cc1
Response: -6.86

Prompt: Quickly give me recorded Inhibition for CC(=O)Nc1nc(C)c(CCC2OCCO2)c(O)n1
Response: 4.85

Prompt: Quickly give me recorded Inhibition for Cc1nc2ccccc2c(N)c1-c1cc(C)c2c(C)nc3ccccc3c2n1
Response: -4.42

----------
# Tested on: Klebsiella pneumoniae
# TEST_PARAMETERS: Concentration 20 uM; ASSAY_TEST Inhibition of Bacterial Growth; detection method Absorption (OD600); MEDIA CAMHB; plate type 384well; NBS; CORNING #3640; time 18 hr
# Description: Antibacterial activity against Klebsiella pneumoniae MDR ATCC 70063 (CO-ADD:GN_003); MIC in CAMBH media using NBS plates, by OD(600)
Measured potencies and affinities stand elsewhere.
Classify as follows. Reported Inhibition greater than or equal to 10%: T. Reported Inhibition below: F.

| COMPOUND | CATEGORY_LABEL |
| --- | --- |
| NC1=C2C(=O)c3ccccc3C(=O)C2=C(N)CC1 | F |
| Cc1cc2nc3ccc(N(C)C)cc3[s+]c2cc1N.[Cl-] [TOLONIUM CHLORIDE] | T |

Prompt: Form field: Inhibition at least 10%? Entry: NNC(=O)CNC(=O)Nc1nnc(S)s1
Response: T

Prompt: Form field: Inhibition at least 10%? Entry: CCCn1cnc2c(Sc3c([N+](=O)[O-])ncn3C)nc(N)nc21
Response: F

----------
# Test system: Escherichia coli
# EXPERIMENT_NOTES: Antibacterial activity against Escherichia coli ATCC 25922 (CO-ADD:GN_001); MIC in CAMBH media using NBS plates, by Resazurin F(560/590)
# Assay type: functional
# TEST_PARAMETERS: Concentration 20 uM, ASSAY_TEST Inhibition of Bacterial Growth, detection method Resazurin, Fluorescence (ex560/em590), MEDIA CAMHB, plate type 384well, CORNING #3640, time 18 hr
ATTRIBUTE_MEASURED: Inhibition (%)
Write the number in % without appending the unit.

| COMPOUND | RESULT_UNITS | Inhibition |
| --- | --- | --- |
| CC(C)N(Cc1ccccc1)S(=O)(=O)c1nc(C(C)(C)C)n[nH]1 | % | 0.73 |

Prompt: Quickly give me recorded Inhibition for CN1C=C/C(=C/[N+](=O)[O-])N(C)C1=O
Response: 4.71

Prompt: Quickly give me recorded Inhibition for CC(C)C(=O)c1ccc(O)c(O)c1
Response: -12.2

Prompt: Quickly give me recorded Inhibition for c1ccc(-c2nnc(-c3ccccn3)[nH]2)nc1
Response: -1.7

Prompt: Quickly give me recorded Inhibition for CC1(C)N=C(N)N=C(N)N1c1ccc(OCCCOc2ccccc2)c(Cl)c1.CCS(=O)(=O)O
Response: 15.29

Prompt: Quickly give me recorded Inhibition for C1CCc2nc3c(nc2C1)CCCC3
Response: 11.61

Prompt: Quickly give me recorded Inhibition for Cc1cc2cc3c(=O)[nH]c(=O)cc-3n(CC(O)C(O)C(O)CO)c2cc1C (stereo not given)
Response: -0.29

Prompt: Quickly give me recorded Inhibition for COc1cccc(-c2nnc(N)o2)c1
Response: 4.71

Prompt: Quickly give me recorded Inhibition for Cc1cccc(NC2=C(C#N)C(=O)NC3(CCCC3)S2)c1
Response: -9.49

Prompt: Quickly give me recorded Inhibition for O=C(NCc1ccco1)Nc1cccc([N+](=O)[O-])c1
Response: -1.12

Prompt: Quickly give me recorded Inhibition for C1CCCC(NC2=NCCO2)CCC1
Response: -9.72

Prompt: Quickly give me recorded Inhibition for COC(=O)Cc1[nH]c(Cl)nc1C(N)=O
Response: -2.69

Prompt: Quickly give me recorded Inhibition for Nc1ncnc2c1ncn2C=C=CCO
Response: -2.59

Prompt: Quickly give me recorded Inhibition for OC1(Cc2ccccc2)CCNCC1
Response: 6.88

Prompt: Quickly give me recorded Inhibition for CCCCNc1nc(N)ncc1[N+](=O)[O-]
Response: 14

Prompt: Quickly give me recorded Inhibition for O=C(O)CCNC1CCCCC1
Response: 6.52

Prompt: Quickly give me recorded Inhibition for CC(O)(c1ccccc1)C(c1ccccc1)C1CCCCN1 (stereo not given)
Response: -4.2

Prompt: Quickly give me recorded Inhibition for CN1CCN(C(=O)Nc2ccc([N+](=O)[O-])cc2)CC1
Response: 0.54

Prompt: Quickly give me recorded Inhibition for CCOC(=O)CC1(C)NC(C(=O)O)C(C)(C)S1 (stereo not given)
Response: -11.39

Prompt: Quickly give me recorded Inhibition for CCC(C)(C)c1ccc(Oc2cccc(C(=O)O)c2)cc1
Response: -8.34

Prompt: Quickly give me recorded Inhibition for CC(=O)OCCN1c2ccccc2Sc2cnccc21
Response: -8.04

Prompt: Quickly give me recorded Inhibition for CS/C(=C\c1ccc(C(=O)c2ccc(C)cc2)n1C)[S+](C)[O-] (stereo not given)
Response: 1.09

Prompt: Quickly give me recorded Inhibition for Brc1ccc(-c2csc(Nc3nc(-c4ccc(Br)cc4)cs3)n2)cc1
Response: 9.62

Prompt: Quickly give me recorded Inhibition for Cn1c(=O)c2c(ncn2CCOC(=O)C(C)(C)Oc2ccc(Cl)cc2)n(C)c1=O [THEOFIBRATE]
Response: 14.7

Prompt: Quickly give me recorded Inhibition for CC(=O)OCc1cc(-c2nc3ccccc3nc2O)nn1-c1ccc(Cl)cc1
Response: -18.97

----------
# Test system: Acinetobacter baumannii
# EXPERIMENT_NOTES: Antibacterial activity against Acinetobacter baumannii ATCC 19606 (CO-ADD:GN_034); MIC in CAMBH media using NBS plates, by Resazurin F(560/590)
# Type: functional
# TEST_PARAMETERS: Concentration 20 uM, ASSAY_TEST Inhibition of Bacterial Growth, detection method Resazurin, Fluorescence (ex560/em590), MEDIA CAMHB, plate type 384well, CORNING #3640, time 18 hr
ATTRIBUTE_MEASURED: Inhibition (%)
Write the number in % without appending the unit.

In the examples that follow, each entry is paired with its recorded Inhibition.
| COMPOUND | Inhibition, % |
| --- | --- |
| O=C(Nc1ccc(Oc2ccc(NC(=O)Nc3ccc([N+](=O)[O-])cc3)cc2)cc1)Nc1ccc([N+](=O)[O-])cc1 | -20.31 |
| COc1cc(O)c(C(=O)/C=C/c2ccccc2)c(OC)c1 [FLAVOKAWAIN B] | 7.33 |

Prompt: Quickly give me recorded Inhibition for CCOC(=O)Cn1nc2oc(=O)c(CCN3CCN(c4ccccc4OC)CC3)c(C)c2c1C
Response: -3.04

Prompt: Quickly give me recorded Inhibition for CC(C)c1nc2c(=O)n(C)c(=O)n(C)c2[nH]1
Response: -19.52

Prompt: Quickly give me recorded Inhibition for O=C(Nc1ccc(Br)c2ccccc12)c1ccc2ccccc2c1O
Response: -4.06

Prompt: Quickly give me recorded Inhibition for CCNc1nc(Cl)nc(-c2cn(-c3ccccc3)c3ccccc23)n1
Response: 12.81

Prompt: Quickly give me recorded Inhibition for CCOC(=O)c1cnn2c(SC)ncnc12
Response: 5.37

Prompt: Quickly give me recorded Inhibition for O=C(CC1C=Cc2ccccc2N1C(=O)c1ccccc1)c1ccccc1 (stereo not given)
Response: 6.29

Prompt: Quickly give me recorded Inhibition for COC(=O)Cc1[nH]c(O)nc1C(=O)OC
Response: -8.26

----------
# System: Staphylococcus aureus
# EXPERIMENT_NOTES: Antibacterial activity against Staphylococcus aureus MRSA ATCC 43300 (CO-ADD:GP_020); MIC in CAMBH media using NBS plates, by Resazurin F(560/590)
# Assay type: functional
# TEST_PARAMETERS: Concentration 20 uM, ASSAY_TEST Inhibition of Bacterial Growth, detection method Resazurin, Fluorescence (ex560/em590), MEDIA CAMHB, plate type 384well, CORNING #3640, time 18 hr
Label met when Inhibition < 10%; otherwise not met.

Sample answers from the record:
| COMPOUND | TESTED_SYSTEM | CATEGORY_LABEL |
| --- | --- | --- |
| Cc1ccc2c(c1)sc1nncn12 | Staphylococcus aureus | not met |
| O=C(O)c1cccc2c1C(=O)c1cccc3snc-2c13 | Staphylococcus aureus | not met |
| C/C(=N\O)C1CC(CC(=O)O)C1(C)C (stereo not drawn) | Staphylococcus aureus | met |
| O=C(C=C=Nc1ccccc1)C(=O)N=C=Cc1ccccc1 | Staphylococcus aureus | met |
| Cc1cc(O)c(-c2cc(O)c(C)cc2O)cc1O | Staphylococcus aureus | met |

Prompt: Find out if reported Inhibition for CCCCCC(=O)N1CCCC1 is less than 10%
Response: not met

Prompt: Find out if reported Inhibition for O=C1NC(=O)C2(CCc3ccccc32)N1 (stereo not drawn) is less than 10%
Response: met

Prompt: Find out if reported Inhibition for N#Cc1c(N)nc(N)nc1Nc1ccc(Br)cc1 is less than 10%
Response: not met

Prompt: Find out if reported Inhibition for Nc1nc(SCc2ccccc2)sc1C(=O)N1CCCCC1 is less than 10%
Response: not met

Prompt: Find out if reported Inhibition for CCOC(=O)N1C/C(=C\c2ccccc2)C(=O)/C(=C/c2ccccc2)C1 is less than 10%
Response: not met

Prompt: Find out if reported Inhibition for COc1cc(C(=O)OC(C)CN2CCOCC2)cc(OC)c1OC (stereo not drawn) is less than 10%
Response: not met

Prompt: Find out if reported Inhibition for COc1ccccc1N1C(=O)CC(Sc2ccccc2N)C1=O (stereo not drawn) is less than 10%
Response: not met

Prompt: Find out if reported Inhibition for Cc1nc2ccccc2nc1NS(=O)(=O)c1ccc(N)cc1 is less than 10%
Response: met
